- Test system: Staphylococcus aureus
- procedure text: Antibacterial activity against methicillin-resistant Staphylococcus aureus ATCC 33592 after overnight incubation by broth microdilution assay in presence of 4 ug/ml meropenem
- Type: functional
recorded endpoint: MRC (µg/mL)

[[record]]
structure = "C=C1CCC[C@@H]2Nc3ccc(Br)cc3[C@]12CCNS(=O)(=O)c1ccc(C#N)cc1"
target_or_system = "Staphylococcus aureus"
recorded_endpoint = "MRC"
result_value = 16

[[record]]
structure = "C=C1CCC[C@@H]2Nc3cccc(Br)c3[C@]12CCNS(=O)(=O)c1ccc(Cl)cc1"
target_or_system = "Staphylococcus aureus"
recorded_endpoint = "MRC"
result_value = 16

[[record]]
structure = "C=C1CCC[C@@H]2Nc3c(F)cc(Br)cc3[C@]12CCNS(=O)(=O)c1ccc(C#N)cc1"
target_or_system = "Staphylococcus aureus"
recorded_endpoint = "MRC"
result_value = 4

